Listed molecules paired with reported MIC
# Test system: K. pneumoniae H154680676 (KP5)
# testDetails: MIC broth microdilution
# Format: cell-based, Klebsiella pneumoniae
# conditionInfo: Klebsiella pneumoniae
measuredMetric: MIC

{"molecule": "CNc1cc(-c2[nH]c(N)nc2-c2ccc3c(c2)CCO3)ccn1 [Example 9]", "measValue": "1 to 10 µM"}
{"molecule": "Nc1cc(-c2[nH]c(N)nc2-c2ccc3c(c2)OCCO3)ccn1 [Example 24]", "measValue": "1 to 10 µM"}
{"molecule": "Cc1cc(-c2[nH]c(N)nc2-c2ccc3c(c2)OCO3)ccn1 [Example 26]", "measValue": "1 to 10 µM"}

====

# System: K. pneumoniae H154020667 (KP6)
Listed molecules paired with reported MIC

{"cpdSmiles": "Cc1cc(-c2[nH]c(N)nc2-c2ccc3c(c2)OCO3)ccn1", "measuredTarget": "K. pneumoniae H154020667 (KP6)", "MIC": "1 to 10 µM"}
{"cpdSmiles": "Nc1nc(-c2ccc3c(c2)NCCO3)c(-c2ccnc(Cl)c2)[nH]1", "measuredTarget": "K. pneumoniae H154020667 (KP6)", "MIC": "1 to 10 µM"}
{"cpdSmiles": "COc1ccc(-c2nc(N)[nH]c2-c2ccnc(C)c2)cc1Cl", "measuredTarget": "K. pneumoniae H154020667 (KP6)", "MIC": "1 to 10 µM"}
{"cpdSmiles": "Cc1cc(-c2[nH]c(N)nc2-c2ccc3c(c2)N(C(=O)CN)CCO3)ccn1", "measuredTarget": "K. pneumoniae H154020667 (KP6)", "MIC": "1 to 10 µM"}
{"cpdSmiles": "COCCN1CCOc2ccc(-c3nc(N)[nH]c3-c3ccnc(C)c3)cc21", "measuredTarget": "K. pneumoniae H154020667 (KP6)", "MIC": "1 to 10 µM"}
{"cpdSmiles": "Cc1cc(-c2[nH]c(N)nc2-c2ccc3c(c2)N(C2CC2)CCO3)ccn1", "measuredTarget": "K. pneumoniae H154020667 (KP6)", "MIC": "≤ 1 µM"}
{"cpdSmiles": "Cc1cc(-c2[nH]c(N)nc2-c2cc(F)c3c(c2)NCCO3)ccn1", "measuredTarget": "K. pneumoniae H154020667 (KP6)", "MIC": "≤ 1 µM"}
{"cpdSmiles": "CNc1cc(-c2[nH]c(N)nc2-c2ccc3c(c2)CCO3)ccn1", "measuredTarget": "K. pneumoniae H154020667 (KP6)", "MIC": "≤ 1 µM"}
{"cpdSmiles": "Cc1cc(-c2[nH]c(N)nc2-c2ccc(OCc3ccc(F)cc3)cc2)ccn1", "measuredTarget": "K. pneumoniae H154020667 (KP6)", "MIC": "≤ 1 µM"}
{"cpdSmiles": "Nc1cc(-c2[nH]c(N)nc2-c2ccc(OCc3ccc(F)cc3)cc2)ccn1", "measuredTarget": "K. pneumoniae H154020667 (KP6)", "MIC": "≤ 1 µM"}
{"cpdSmiles": "Cc1cc(-c2[nH]c(N)nc2-c2cc3c(cc2F)OCCN3)ccn1", "measuredTarget": "K. pneumoniae H154020667 (KP6)", "MIC": "≤ 1 µM"}
{"cpdSmiles": "Cc1cc(-c2[nH]c(N)nc2-c2ccc3c(c2)CCO3)ccn1", "measuredTarget": "K. pneumoniae H154020667 (KP6)", "MIC": "1 to 10 µM"}
